The values you see were collected from PubChem BioAssay AID1963841.

Test system: 439559-082-T-J2-PDC spheroid viability
test.protocol: Anticancer human tumor 439559-082-T-J2-PDC patient-derived colon adenocarcinoma cell line growth inhibition [POLQ]
particulars: second compound 10 µM; first compound 0.1 µM; stronger effect = lower value; spheroids with HUVEC and MSC
Consider the following molecules and their measured viability, T/C readings.
The reply should contain only the number, in %.

Sample records with viability, T/C:
>  <molecule>
CC1COCCN1c1cc(-c2ccnn2C)c2ccnc(-c3ccn[nH]3)c2n1 (stereo not given) + Cc1cccc(N(C)C(=O)C2C(O)CCN2c2nc(C)cc(C(F)(F)F)c2C#N)c1

>  <target.entity>
439559-082-T-J2-PDC spheroid viability;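 also: spheroids exposed to compounds for seven days before readout; 100% = DMSO vehicle control viability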

>  <value.units>
%

>  <viability, T/C>
72.3

$$$$
>  <molecule>
COc1cc(C2c3cc4c(cc3C(OC3OC5COC(C)OC5C(O)C3O)C3COC(=O)C23)OCO4)cc(OC)c1O (stereo not given) + Cc1cccc(N(C)C(=O)C2C(O)CCN2c2nc(C)cc(C(F)(F)F)c2C#N)c1

>  <target.entity>
439559-082-T-J2-PDC spheroid viability;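 also: spheroids exposed to compounds for seven days before readout; 100% = DMSO vehicle control viability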

>  <value.units>
%

>  <viability, T/C>
82.5

$$$$
>  <molecule>
COc1cc(C2c3cc4c(cc3C(OC3OC5COC(C)OC5C(O)C3O)C3COC(=O)C23)OCO4)cc(OC)c1O (stereo not given) + Nc1ccc(C#CCN(C(=O)Cc2ncc(C(F)(F)F)cc2C(F)(F)F)c2ccc(F)cc2)nn1

>  <target.entity>
439559-082-T-J2-PDC spheroid viability;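 also: spheroids exposed to compounds for seven days before readout; 100% = DMSO vehicle control viability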

>  <value.units>
%

>  <viability, T/C>
84.4

$$$$
>  <molecule>
CC1COCCN1c1cc(-c2ccnn2C)c2ccnc(-c3ccn[nH]3)c2n1 (stereo not given) + Nc1ccc(C#CCN(C(=O)Cc2ncc(C(F)(F)F)cc2C(F)(F)F)c2ccc(F)cc2)nn1

>  <target.entity>
439559-082-T-J2-PDC spheroid viability;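 also: spheroids exposed to compounds for seven days before readout; 100% = DMSO vehicle control viability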

>  <value.units>
%

>  <viability, T/C>
74.3

$$$$

// below: viability, T/C requested for another molecule
get_value(item= C=CC(=O)N1CCN(c2nc(=O)n(-c3c(C)ccnc3C(C)C)c3nc(-c4c(O)cccc4F)c(F)cc23)C(C)C1 (stereo not given) + Nc1ccc(C#CCN(C(=O)Cc2ncc(C(F)(F)F)cc2C(F)(F)F)c2ccc(F)cc2)nn1 , readout=viability, T/C) returns 96.1
